src = ChEMBL document CHEMBL3351998

molecular target: Protein-glutamine gamma-glutamyltransferase (Homo sapiens) (UniProt P21980); experiment: Inhibition of human transglutaminase 2 using ((benzyloxy)carbony l)-L-glutaminylglycine peptide substrate assessed as Kinh/Ki ratio by GDH coupled assay
Sequence (P21980 whole entry): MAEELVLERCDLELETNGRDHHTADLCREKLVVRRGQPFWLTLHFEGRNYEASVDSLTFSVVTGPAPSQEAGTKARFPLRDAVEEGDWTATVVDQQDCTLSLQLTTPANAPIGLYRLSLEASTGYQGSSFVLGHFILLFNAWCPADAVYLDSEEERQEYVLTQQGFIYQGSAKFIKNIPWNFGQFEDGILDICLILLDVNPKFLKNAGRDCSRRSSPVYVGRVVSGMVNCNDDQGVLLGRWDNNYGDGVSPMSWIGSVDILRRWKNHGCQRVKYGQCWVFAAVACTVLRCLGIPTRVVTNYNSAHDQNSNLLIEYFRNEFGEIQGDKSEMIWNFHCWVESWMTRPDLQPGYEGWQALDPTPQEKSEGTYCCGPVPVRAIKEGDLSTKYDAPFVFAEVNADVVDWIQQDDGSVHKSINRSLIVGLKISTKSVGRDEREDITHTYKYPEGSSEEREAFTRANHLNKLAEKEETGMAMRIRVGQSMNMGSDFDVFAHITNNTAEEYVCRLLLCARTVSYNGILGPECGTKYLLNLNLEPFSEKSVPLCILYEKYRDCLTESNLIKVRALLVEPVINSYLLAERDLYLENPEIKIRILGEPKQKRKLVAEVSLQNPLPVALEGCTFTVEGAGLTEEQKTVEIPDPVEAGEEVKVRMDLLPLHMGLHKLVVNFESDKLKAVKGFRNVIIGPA
Each entry below carries its recorded Ratio.

Guide cases for Ratio, answers given:
O=C(C[C@@H]1CCCN1C(=O)OCc1cnc2ccccc2c1)NC[C@@H]1CC(Br)=NO1 | 1.3
O=C(NC[C@@H]1CC(Br)=NO1)[C@@H]1C[C@@H](c2ccccc2)CN1C(=O)OCc1cnc2ccccc2c1 | 48.6
O=C(NC[C@@H]1CC(Br)=NO1)[C@@H]1C[C@@H](NC(=O)C2(C(=O)O)CCC2)CN1C(=O)OCc1cnc2ccccc2c1 | 14.8
O=C(NC[C@@H]1CC(Br)=NO1)[C@@H]1CCCCN1C(=O)OCc1cnc2ccccc2c1 | 12
O=C(N[C@@H]1C[C@@H](C(=O)NC[C@@H]2CC(Br)=NO2)N(C(=O)OCc2cnc3ccccc3c2)C1)c1ccccc1O | 37.1

In the following, a different compound is considered.
What value of Ratio has been recorded for this entry: C#CCOC(=O)N1CCC[C@H]1C(=O)NC[C@@H]1CC(Br)=NO1
2.4
